measured on: Aryl hydrocarbon receptor (Homo sapiens)
experiment description: ATG_Ahr_CIS: Attagene CIS-FACTORIAL HepG2 Assay for human Aryl Hydrocarbon Receptor (Ahr) (AID 2282930)
details: HepG2 AhR cis-factorial reporter transcription; actives raise or lower the signal
The source made the active and inactive calls. Rule for the calls: active = hit-call score of the fitted dose curve at least 0.9, where 1 is the maximum; inactive = score below 0.9.
assay readout: AC50

Recorded AC50, per entry:
molecule	AC50
CCNCC	inactive
O=c1[nH]c(Cl)c(Cl)cc1Cl	13.8 µM (active)
CC(C)CCCCCCCOC(=O)c1ccccc1C(=O)OCCCCCCCC(C)C	inactive
CCCOC(=O)c1ccccc1C(=O)OCCC	inactive
O=S(=O)(c1ccccc1)c1ccccc1	inactive

Name the reported AC50 value associated with the molecule "CCC(C)(C)O" inactive

Now the molecule O=C1Nc2ccc(Cl)cc2C(c2ccccc2)=NC1O (stereo not given) inactive

Now the molecule "CC(C)C(=O)Cl" inactive

Now the molecule CC(Cc1ccc(C(C)(C)C)cc1)CN1C[C@@H](C)O[C@@H](C)C1 (stereo not given in full) 33.4 µM (active)
